System: T1, MPK6 (purified, pull-down) (Arabidopsis thaliana, UniProt Q39026 1-395)
T1 construct: MPK6, MAP kinase 6, Arabidopsis thaliana, At2G43790; fusion protein; source: E. coli, purified (glutathione agarose beads)
T1 sequence (Q39026 whole entry, the tested form may be a part): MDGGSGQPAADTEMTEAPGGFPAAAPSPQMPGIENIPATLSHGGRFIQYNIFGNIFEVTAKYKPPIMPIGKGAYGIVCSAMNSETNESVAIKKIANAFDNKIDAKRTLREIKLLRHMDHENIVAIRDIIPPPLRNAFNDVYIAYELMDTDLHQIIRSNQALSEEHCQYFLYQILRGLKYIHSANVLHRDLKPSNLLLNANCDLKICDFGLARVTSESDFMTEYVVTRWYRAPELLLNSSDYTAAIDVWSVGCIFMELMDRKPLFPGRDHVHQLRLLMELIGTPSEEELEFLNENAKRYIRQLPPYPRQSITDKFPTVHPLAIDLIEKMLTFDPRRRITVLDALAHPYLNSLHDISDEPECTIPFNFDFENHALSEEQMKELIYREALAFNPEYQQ
Protocol: pull-down; purified fusion proteins from E. coli incubated with glutathione agarose beads, 25 mM Tris-HCl pH 7.5, 100 mM NaCl, 1 mM DTT, 1 hr; seven washes with 0.1% Triton X-100; eluted with 15 mM GSH; immunoblot
Measurement Context: both partners purified
Quantity Kind: binding result

AGB1 (purified, pull-down) (natural protein, Arabidopsis thaliana, UniProt P49177 1-377, looked up, AGB1, G protein beta subunit, Arabidopsis thaliana, At4G34460; source: E. coli, purified (glutathione agarose beads)) MSVSELKERHAVATETVNNLRDQLRQRRLQLLDTDVARYSAAQGRTRVSFGATDLVCCRTLQGHTGKVYSLDWTPERNRIVSASQDGRLIVWNALTSQKTHAIKLPCAWVMTCAFSPNGQSVACGGLDSVCSIFSLSSTADKDGTVPVSRMLTGHRGYVSCCQYVPNEDAHLITSSGDQTCILWDVTTGLKTSVFGGEFQSGHTADVLSVSISGSNPNWFISGSCDSTARLWDTRAASRAVRTFHGHEGDVNTVKFFPDGYRFGTGSDDGTCRLYDIRTGHQLQVYQPHGDGENGPVTSIAFSVSGRLLFAGYASNNTCYVWDTLLGEVVLDLGLQQDSHRNRISCLGLSADGSALCTGSWDSNLKIWAFGGHRRVI	binds
AGG2 (purified, pull-down) (natural protein, Arabidopsis thaliana, UniProt Q93V47 1-100, looked up, AGG2, G protein gamma subunit 2, Arabidopsis thaliana, At3G22942; fusion protein; source: E. coli, purified (glutathione agarose beads)) MEAGSSNSSGQLSGRVVDTRGKHRIQAELKRLEQEARFLEEELEQLEKMDNASASCKEFLDSVDSKPDPLLPETTGPVNATWDQWFEGPKEAKRCGCSIL	binds
GPA1^Q222L (purified, pull-down) (natural protein, Arabidopsis thaliana, UniProt P18064 1-383, looked up, GPA1, G protein alpha subunit, Arabidopsis thaliana, At2G26300, with Q222L; fusion protein; source: E. coli, purified (glutathione agarose beads)) MGLLCSRSRHHTEDTDENTQAAEIERRIEQEAKAEKHIRKLLLLGAGESGKSTIFKQIKLLFQTGFDEGELKSYVPVIHANVYQTIKLLHDGTKEFAQNETDSAKYMLSSESIAIGEKLSEIGGRLDYPRLTKDIAEGIETLWKDPAIQETCARGNELQVPDCTKYLMENLKRLSDINYIPTKEDVLYARVRTTGVVEIQFSPVGENKKSGEVYRLFDVGGLRNERRKWIHLFEGVTAVIFCAAISEYDQTLFEDEQKNRMMETKELFDWVLKQPCFEKTSFMLFLNKFDIFEKKVLDVPLNVCEWFRDYQPVSSGKQEIEHAYEFVKKKFEELYYQNTAPDRVDRVFKIYRTTALDQKLVKKTFKLVDETLRRRNLLEAGLL	binds
